method: Cytotoxicity experiment (MTT method) on C8166 cells
Type: cell-based
cond: human
Could you please mark true (1) for values of CC50 at 3 days below 80 µM and false (0) for values at or above it?

[
  {
    "molecule": "CCc1c(Cc2ccccc2)nc(SCc2n[nH]c(-c3ccc(F)c(F)c3)c2Cl)[nH]c1=O [Compound I-53]",
    "labelClass": "false (0)"
  },
  {
    "molecule": "CC(C)c1c(CC2CCCCC2)nc(SCc2cc(-c3ccc(O)cc3)[nH]n2)[nH]c1=O [Compound I-38]",
    "labelClass": "false (0)"
  },
  {
    "molecule": "O=c1cc(CC2CCCCC2)nc(SCc2n[nH]c(-c3ccc(F)cc3)c2Cl)[nH]1 [Compound I-67]",
    "labelClass": "false (0)"
  },
  {
    "molecule": "Cc1cn([C@H]2C[C@H](N=[N+]=[N-])[C@@H](CO)O2)c(=O)[nH]c1=O [AZT, Zidovudine, reference compound]",
    "labelClass": "false (0)"
  },
  {
    "molecule": "Cc1c(CC2CCCCC2)nc(SCc2cc(-c3ccc(O)cc3)[nH]n2)[nH]c1=O [Compound I-47]",
    "labelClass": "true (1)"
  },
  {
    "molecule": "CCc1c(Cc2ccc3c(c2)OCO3)nc(SCc2cc(-c3ccc(F)c(F)c3)[nH]n2)[nH]c1=O [Compound I-62]",
    "labelClass": "false (0)"
  }
]

Query string: Lab log: compare recorded CC50 at 3 days with 80 µM; is it strictly lower for CCc1c(Cc2cc(F)cc(F)c2)nc(SCc2cc(-c3ccc(F)c(F)c3)[nH]n2)[nH]c1=O [Compound I-61] ?
Result string: true (1)

Query string: Lab log: compare recorded CC50 at 3 days with 80 µM; is it strictly lower for O=c1cc(CC2CCCCC2)nc(SCc2n[nH]c(-c3ccccc3)c2Cl)[nH]1 [Compound I-48] ?
Result string: false (0)

Query string: Lab log: compare recorded CC50 at 3 days with 80 µM; is it strictly lower for CCc1c(Cc2cc(F)cc(F)c2)nc(SCc2n[nH]c(-c3ccccc3)c2Cl)[nH]c1=O [Compound I-69] ?
Result string: false (0)

Query string: Lab log: compare recorded CC50 at 3 days with 80 µM; is it strictly lower for CC(C)c1c(CC2CCCCC2)nc(SCc2cc(-c3ccc(F)cc3)[nH]n2)[nH]c1=O [Compound I-39] ?
Result string: false (0)

Query string: Lab log: compare recorded CC50 at 3 days with 80 µM; is it strictly lower for Cc1c(CC2CCCCC2)nc(SCc2n[nH]c(-c3ccc(F)c(F)c3)c2Cl)[nH]c1=O [Compound I-56] ?
Result string: true (1)
